Source of measurements: ChEMBL document CHEMBL5303304

Consider the following compounds and their measured Growth Rate readings.
- System: Fibroblast
- method: Incucyte cell viability with human fibroblast; note: unitless GR value; below 1 slowed growth and below 0 cell loss
- Type: toxicity, cell-based
- condition_notes: 24 h, 10 µM, compound concentration 10 uM, replicate number 2
Lab note: jot the number down without any unit.

As a guide, the following entries are already answered.
Q: Let me know recorded Growth Rate for CC[C@H](Nc1c(C#N)c(-c2ccc(-c3cccc(C)c3F)cc2)nc2cnccc12)C(=O)O [BAY-0361] , thanks.
Ans: 0.84

Q: Return reported Growth Rate. Input compound: Cn1nccc1-c1ccc(Sc2cccc(C3(C(N)=O)CCOCC3)c2)cc1 [PF-4191834]
Ans: 0.46

Q: Fill in reported Growth Rate for this entry: `Cn1c(=O)n(CCCO)c(=O)c2c1nc(Oc1cccc(Cl)c1)n2Cc1ccc(Cl)cc1`
Ans: 0.85

Q: # return recorded Growth Rate for input `Cc1c(-c2cc(-c3ccccc3Cl)no2)cnn1C1CCNCC1.Cl`
Ans: -0.36

Q: For C[C@H](CCC(=O)O)[C@H]1CC[C@H]2[C@@H]3[C@H](O)C[C@@H]4C[C@H](O)CC[C@]4(C)[C@H]3C[C@H](O)[C@]12C [CHOLIC ACID] , write its Growth Rate.
Ans: 0.97

// below: Growth Rate requested for another compound
Q: Give a short answer stating reported Growth Rate for `COc1ccccc1[C@@H]1CNCCC12CCN(C(=O)[C@](OC)(c1ccccc1)C(F)(F)F)CC2` .
Ans: 0.68
